Data provenance: patent US8518944B2

# Subject of test: UniProtKB P48730
# Test protocol: CK1δ kinase assay (Kinase-Glo luminescence)
# Type: biochemical
# Assay conditions: ATP 10 μM, CK1δ enzyme 2 nM, peptide substrate 42 μM, 25° C., 85 minutes; values marked * are geometric mean of 5-16 determinations; read-out: CKIδ IC50 (nM), geometric mean of 2-4 determinations
Where a name gives a salt, the structure may show the parent alone.
Measurement type: IC50 (nM)

Some solved cases for reference:
{"Molecule": "Nc1nccc(-c2c(-c3ccc(F)cc3)ncn2C2CCN(Cc3cncs3)CC2)n1 [Example 19, trifluoroacetate salt]", "Unit name": "nM", "IC50": 26.8}
{"Molecule": "Fc1ccc(-c2ncn(C3CCN(Cc4ccon4)CC3)c2-c2ccncn2)cc1 [Example 6, hydrochloride salt]", "Unit name": "nM", "IC50": 24}
{"Molecule": "c1ccc(-c2ncn(C3CCN(Cc4ncccn4)CC3)c2-c2ccncn2)cc1 [Example 11]", "Unit name": "nM", "IC50": 790}

P. CNc1nccc(-c2c(-c3ccc(F)cc3)ncn2C2CCN(Cc3ccon3)CC2)n1 [Example 5]
Q. CNc1nccc(-c2c(-c3ccccc3)ncn2C2CCN(Cc3ccon3)CC2)n1 [Example 15, hydrochloride salt]
R. Nc1nccc(-c2c(-c3ccc(F)cc3)ncn2C2CN(Cc3ncccn3)C2)n1 [Example 1]
S. Cc1c(CN2CCC(n3cnc(-c4ccc(F)cc4)c3-c3ccncn3)C2)nc2ccccn12 (centres unmarked) [Example 41, trifluoroacetate salt]
T. Nc1nccc(-c2c(-c3ccc(F)cc3)ncn2C2CCN(Cc3ccncc3)C2)n1 (centres unmarked) [Example 34]
// query List these items ordered by IC50, big to small. // rank by listing labels in the order requested
// result S, R, T, Q, P

----------
# Subject of test: CK1δ (Homo sapiens, UniProt P48730)
# Sequence (P48730 whole entry): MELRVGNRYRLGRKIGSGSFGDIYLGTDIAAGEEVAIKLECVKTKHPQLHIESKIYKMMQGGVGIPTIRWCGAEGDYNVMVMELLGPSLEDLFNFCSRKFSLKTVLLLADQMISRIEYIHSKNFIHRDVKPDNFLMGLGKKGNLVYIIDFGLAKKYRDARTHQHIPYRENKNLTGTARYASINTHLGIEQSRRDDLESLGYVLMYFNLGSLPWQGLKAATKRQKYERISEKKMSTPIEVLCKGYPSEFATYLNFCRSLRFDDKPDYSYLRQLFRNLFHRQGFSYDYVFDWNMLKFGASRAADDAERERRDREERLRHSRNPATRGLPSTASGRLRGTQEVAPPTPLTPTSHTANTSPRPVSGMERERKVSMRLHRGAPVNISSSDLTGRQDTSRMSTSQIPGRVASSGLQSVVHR
# Test protocol: CK1δ kinase assay (Kinase-Glo luminescence)
# Type: biochemical
# Assay conditions: ATP 10 μM, CK1δ enzyme 2 nM, peptide substrate 42 μM, 25° C., 85 minutes; values marked * are geometric mean of 5-16 determinations; read-out: CKIδ IC50 (nM), geometric mean of 2-4 determinations
Counter-ions that a name gives are not always drawn.
Measurement type: IC50 (nM)

# annotated cases, reported IC50 shown
{"Molecule": "CNc1nccc(-c2c(-c3ccccc3)ncn2C2CCN(Cc3ncccn3)CC2)n1", "Subject of test": "CK1δ (Homo sapiens, UniProt P48730)", "IC50, nM": 191}
{"Molecule": "Cc1cc(CN2CCC(n3cnc(-c4ccc(F)cc4)c3-c3ccnc(N)n3)CC2)ccn1 [Example 21, trifluoroacetate salt]", "Subject of test": "CK1δ (Homo sapiens, UniProt P48730)", "IC50, nM": 13}
{"Molecule": "COc1cc(CN2CCC(n3cnc(-c4ccc(F)cc4)c3-c3ccnc(N)n3)CC2)ccn1 [Example 25, trifluoroacetate salt]", "Subject of test": "CK1δ (Homo sapiens, UniProt P48730)", "IC50, nM": 84.3}

A. Nc1nccc(-c2c(-c3ccc(F)cc3)ncn2C2CCN(Cc3ccc4nccnc4c3)C2)n1 (centres unmarked)
B. c1ccc(-c2ncn(C3CCN(Cc4ccon4)CC3)c2-c2ccncn2)cc1
// query Hi! Which is lower in terms of IC50, the first one A or the second one B ? Label of pick, please.
// result B
(B: 42.8 nM, A: 67.8 nM)
